SYSTEM: human GLP-1R (Homo sapiens, UniProt P43220)
Sequence (P43220 24-463): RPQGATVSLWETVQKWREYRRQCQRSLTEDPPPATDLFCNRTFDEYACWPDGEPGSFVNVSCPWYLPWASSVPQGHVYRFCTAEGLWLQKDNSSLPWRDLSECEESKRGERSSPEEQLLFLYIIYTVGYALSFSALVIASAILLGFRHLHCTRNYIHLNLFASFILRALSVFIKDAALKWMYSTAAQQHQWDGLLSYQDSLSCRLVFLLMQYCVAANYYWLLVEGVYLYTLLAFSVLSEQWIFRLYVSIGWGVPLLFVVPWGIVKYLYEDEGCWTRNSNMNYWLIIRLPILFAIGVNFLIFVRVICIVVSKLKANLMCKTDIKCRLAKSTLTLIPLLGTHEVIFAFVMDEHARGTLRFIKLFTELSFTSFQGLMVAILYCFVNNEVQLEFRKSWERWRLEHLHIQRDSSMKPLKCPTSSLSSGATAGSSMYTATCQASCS
ASSAY_PROCEDURE: GLP-1 receptor in vitro calcium assay (intracellular free calcium concentration change induced via GLP-1 receptor)
EXPERIMENTAL_CONDITIONS: PRG48 cells transfected with human GLP-1R; compound added with 250 pM GLP-1; Ca2+ response ΔF/F; read-out: Ca EC50 value
QUANTITY: EC50 (nM)

Previously resolved entries follow.
COMPOUND	UNITS	EC50
Cc1ccc(S(=O)(=O)Nc2ccc(NC(=O)N[C@H](Cc3ccccc3)C(=O)NC3CCCCCC3)cc2)cc1 [Compound 23]	nM	370
CSCCCN(c1ccc(NC(=O)N[C@H](CC2CCCCC2)C(=O)NC(C)CCCC(C)C)cc1)S(=O)(=O)c1ccc(C(C)(C)C)cc1 (stereo partly shown) [Compound 97]	nM	63
CCCCCC(C)NC(=O)[C@@H](Cc1ccccc1)NC(=O)Nc1ccc(NS(=O)(=O)c2ccc(C)cc2)cc1 (stereo partly shown) [Compound 54]	nM	180

[a] Cc1cccc(S(=O)(=O)Nc2ccc(NC(=O)N[C@@H](Cc3ccccc3)C(=O)OC(C)(C)C)cc2)c1 [Compound 77]
[b] CCCc1ccc(S(=O)(=O)Nc2ccc(NC(=O)N[C@@H](Cc3ccccc3)C(=O)OC(C)(C)C)cc2)cc1 [Compound 71]
q: Between a and b , whose measured EC50 reads higher? Return value: the label identifying the chosen record.
a: a
(a: 1600 nM, b: 400 nM)

[1] Cc1ccc(S(=O)(=O)Nc2ccc(NC(=O)N[C@H](Cc3ccc(Cl)cc3)C(=O)NC3CCCCCC3)cc2)cc1 [Compound 42]
[2] CCc1ccc(S(=O)(=O)Nc2ccc(NC(=O)N[C@@H](Cc3ccccc3)C(=O)OC(C)(C)C)cc2)cc1 [Compound 75]
q: Of the two listed items, which has the higher EC50? First: 1 Second: 2 Pick one and reply with its label.
a: 2

----------
SYSTEM: human GLP-1R (Homo sapiens)
ASSAY_PROCEDURE: GLP-1 receptor in vitro calcium assay (intracellular free calcium concentration change induced via GLP-1 receptor)
EXPERIMENTAL_CONDITIONS: PRG48 cells transfected with human GLP-1R; compound added with 250 pM GLP-1; Ca2+ response ΔF/F; read-out: Ca EC50 value
pEC50: −log10 of the molar value.
QUANTITY: pEC50

Solved cases below.
COMPOUND	pEC50
Cc1ccc(S(=O)(=O)Nc2ccc(NC(=S)N[C@H](Cc3ccccc3)C(=O)OC(C)(C)C)cc2)cc1 [Compound 68]	5.92
Cc1ccc(S(=O)(=O)Nc2ccc(NC(=O)N[C@H](Cc3ccccc3)C(=O)NCC3CCCC3)cc2)cc1 [Compound 27]	5.96

[I] Cc1ccc(S(=O)(=O)Nc2cccc(NC(=O)N[C@@H](Cc3ccccc3)C(=O)OC(C)(C)C)c2)cc1 [Compound 79]
[II] CCCCCCCCNC(=O)[C@H](CC1CCCCC1)NC(=O)Nc1ccc(NS(=O)(=O)c2ccc(C(C)(C)C)cc2)cc1 [Compound 57]
[III] CCCCC(CC)CNC(=O)[C@@H](CC1CCCCC1)NC(=O)N(CC(=O)O)c1ccc(NS(=O)(=O)c2ccc(C(C)(C)C)cc2)cc1 (stereo partly shown) [Compound 101]
[IV] CC(C)CCCC(C)NC(=O)[C@@H](Cc1cccnc1)NC(=O)Nc1cccc(NS(=O)(=O)c2ccc(C(C)(C)C)cc2)c1 (stereo partly shown) [Compound 103]
[V] Cc1ccc(S(=O)(=O)Nc2ccc(NC(=O)N[C@H](CC(C)C)C(=O)NCC3CCCCC3)cc2)cc1 [Compound 29]
q: Sequence the entries by pEC50, beginning with the highest number. # output: labels, in the requested order
a: II, III, IV, V, I
